Assay: Restrictive medium S. cerevisiae growth inhibition, OD615, pilot screen of yeast lifespan reduction project, restrictive growth control (AID 706);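 note: modified DeaD lifespan yeast strain shifted to restrictive glucose medium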
Conditions: OD615, 48 h, at 10 µM, stronger effect = higher value
measured.endpoint: growth inhibition (%)
Answer with a number only, understood to be in %.

Annotate the molecule CC(C)N(Cc1nc(-c2ccc(Cl)cc2)no1)C(=O)CCC1CCCC1 with its measured growth inhibition. -14.6

Annotate the molecule COc1ccc(OC)c(NC(=O)Nc2ccccc2C)c1 with its measured growth inhibition. -16.3

Annotate the molecule CCOC(=O)c1ccc(N2C(=O)C3ON(c4ccccc4)C(c4ccco4)C3C2=O)cc1 (stereo unspecified) with its measured growth inhibition. 5.19

Annotate the molecule Cc1c(N=Cc2ccco2)c(=O)n(-c2ccccc2)n1C with its measured growth inhibition. -8.96

Annotate the molecule O=C(c1coc2ccccc2c1=O)N1CCN(c2cccc(C(F)(F)F)c2)CC1 with its measured growth inhibition. -32.1

Annotate the molecule Cc1cc(C)n2nc(SCC#N)nc2n1 with its measured growth inhibition. -4.04

----------
Assay: growth suppression of beta-catenin knockout HCT116, pilot screen, human colon tumor cells (AID 823);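 note: 0% = wells killed by 20 µM Hyamine and 100% = untreated DMSO cell wells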
Details: CellTiter-Glo, 60 h, at 10 µM, stronger effect = lower value
Results filed as inconclusive are left out.
measured.endpoint: viability (%)
Answer with a number only, understood to be in %.

Annotate the compound CC1=C(C(=O)OC2CCCCC2)C(c2ccco2)n2ncnc2N1 (configuration not stated) with its measured viability. 90.7

Annotate the compound CCN1CCN(CC(=O)Nc2ccc(C)cc2C)C(=O)C1=O with its measured viability. 98

Annotate the compound C=CCn1c(=NC(=O)C2CC2)sc2cc(NC(C)=O)ccc21 with its measured viability. 95.7

Annotate the compound O=C(Cn1cnc2c(cnn2-c2ccccc2)c1=O)c1ccc(Cl)cc1 with its measured viability. 94.3

Annotate the compound Cn1nnnc1SCc1ccc(F)cc1 with its measured viability. 98.1

Annotate the compound COc1ccccc1-c1c(C)nn2c(C)cc(C)nc12 with its measured viability. 97.5

Annotate the compound CCCNC(=O)C1CC(=O)N(c2ccc(OCC(=O)Nc3cccc(C)c3C)cc2)C1 (configuration not stated) with its measured viability. 106

Annotate the compound Cc1cc(C)nc(/N=C2\NC(=O)CC(C(=O)O)N2CCc2c[nH]c3ccccc23)n1 (configuration not stated) with its measured viability. 93.3

Annotate the compound Cc1cc(OCCN2CCCC2)ccc1C(C)C with its measured viability. 89.1

Annotate the compound CCN(CC)c1ccc(C=Nc2ccc(C#N)cc2)c(O)c1 with its measured viability. 99.4

Annotate the compound CCN1CCN(C(=O)Cn2ncc3c2-c2ccccc2OC3)CC1 with its measured viability. 106

Annotate the compound C=CCNc1nc2c(c(=O)n(C)c(=O)n2C)n1CC(=C)C with its measured viability. 91.2

----------
Test: Restrictive medium S. cerevisiae growth inhibition, OD615, pilot screen of yeast lifespan reduction project, restrictive growth control (AID 706);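 note: modified DeaD lifespan yeast strain shifted to restrictive glucose medium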
Settings: OD615, 48 h, at 10 µM, stronger effect = higher value
Field: growth inhibition. Provide a value for each of the compounds that follow.
Answer with a number only, understood to be in %.

Annotate the compound Fc1ccccc1COc1ccc(/C=N/n2cnnc2)cc1 with its measured growth inhibition. 23.7

Annotate the compound CCC(CO)N=CC1=C(O)C(C(=O)c2ccccc2)CCC1=O (stereo unspecified) with its measured growth inhibition. -14.8

Annotate the compound CCCCCn1c(CNC(=O)CCC)nc2ccccc21 with its measured growth inhibition. -2.36

Annotate the compound CC(C)(C)NC(=O)C1CCCN(S(=O)(=O)c2cccc3cccnc23)C1 (stereo unspecified) with its measured growth inhibition. 3.88

Annotate the compound O=C(CC1Sc2ncnn2C1=O)Nc1ccc(Br)cc1 (stereo unspecified) with its measured growth inhibition. -9.71

Annotate the compound CCOC(=O)c1cc(-c2nnc(-c3ccc(Cl)cc3)o2)c(C)nc1C with its measured growth inhibition. -14.2

Annotate the compound CN1CCc2c(c3ccccc3n2Cc2ccccc2)C1 with its measured growth inhibition. -8.68

Annotate the compound Cc1ccc(C2CC(c3cccc(Br)c3)n3nc(N)nc3N2)cc1 (stereo unspecified) with its measured growth inhibition. 22.3

Annotate the compound CCOc1ccc(N(CC(=O)N2CCN(c3ccccc3)CC2)S(=O)(=O)c2c(C)noc2C)cc1 with its measured growth inhibition. -1.08

Annotate the compound CCSc1nnc(NC(=O)CCn2c(=O)oc3ccccc32)s1 with its measured growth inhibition. -6.38

Annotate the compound Cn1c(=O)c2c(nc(N3CCN(Cc4ccccc4)CC3)n2CCSc2ncccn2)n(C)c1=O with its measured growth inhibition. -14
